test system: Pyricularia oryze; experiment: whole plant or invertebrate; format: in vivo; conditions: Pyricularia, in Oryza sativa, 168 h, read-out: Preventive value
Measurement Kind: pest or weed control at 250 ppm (%)

Molecule: CCC(C)(NC(=O)c1cc(Cl)c(C)c(Cl)c1)C(=O)CCl (stereo not shown) [zoxamide]
Tested Target: Pyricularia oryze
Uom: %
Observed: 0
//
Molecule: Cc1cc(O)no1
Tested Target: Pyricularia oryze
Uom: %
Observed: 33
//
Molecule: Cc1cc(C2CC2)nc(Nc2ccccc2)n1
Tested Target: Pyricularia oryze
Uom: %
Observed: 73
//
Molecule: C[Si](C)(C)CC(O)(Cn1cncn1)c1ccc(F)cc1 (stereo not shown)
Tested Target: Pyricularia oryze
Uom: %
Observed: 73
//
Molecule: CC(C)NC(=O)N1CC(=O)N(c2cc(Cl)cc(Cl)c2)C1=O
Tested Target: Pyricularia oryze
Uom: %
Observed: 0
//
Molecule: COC(=O)NC(=S)Nc1ccccc1NC(=S)NC(=O)OC [thiophanate-methyl]
Tested Target: Pyricularia oryze
Uom: %
Observed: 83
//
Molecule: Cc1ccc(-c2c(Cl)nc(C#N)n2S(=O)(=O)N(C)C)cc1
Tested Target: Pyricularia oryze
Uom: %
Observed: 0

---

system: Erysiphe graminis f.sp. hordei; settings: Blumeria graminis, in Hordeum vulgare, 168 h, read-out: Preventive value
Catalogue of pest or weed control at 250 ppm readings, one per entry.
Measurement Kind: pest or weed control at 250 ppm (%)

Compound: Cc1ccc(-c2c(Cl)nc(C#N)n2S(=O)(=O)N(C)C)cc1
Tested Target: Erysiphe graminis f.sp. hordei
Observed: 0

Compound: O=[N+]([O-])c1cc(C(F)(F)F)c(Cl)c([N+](=O)[O-])c1Nc1ncc(C(F)(F)F)cc1Cl
Tested Target: Erysiphe graminis f.sp. hordei
Observed: 83

Compound: CC(C)OC(=O)N[C@H](C(=O)N[C@H](C)c1nc2ccc(F)cc2s1)C(C)C
Tested Target: Erysiphe graminis f.sp. hordei
Observed: 0

Compound: COCC(=O)N(c1c(C)cccc1C)C(C)C(=O)OC (stereo not shown) [Metalaxyl, metalaxyl]
Tested Target: Erysiphe graminis f.sp. hordei
Observed: 0

Compound: N#Cc1c[nH]cc1-c1cccc2c1OC(F)(F)O2
Tested Target: Erysiphe graminis f.sp. hordei
Observed: 73

Compound: Cc1cc(O)no1
Tested Target: Erysiphe graminis f.sp. hordei
Observed: 0

Compound: CC(C)NC(=O)N1CC(=O)N(c2cc(Cl)cc(Cl)c2)C1=O
Tested Target: Erysiphe graminis f.sp. hordei
Observed: 17

---

tested on: Puccinia recondita; settings: Puccinia recondita, in Triticum aestivum, 168 h, read-out: Preventive value

Compound: Fc1ccc(Oc2ccnc3cc(Cl)cc(Cl)c23)cc1 [quinoxyfen]
pest or weed control at 250 ppm: 0%

Compound: CC(C)OC(=O)N[C@H](C(=O)N[C@H](C)c1nc2ccc(F)cc2s1)C(C)C [benthiavalicarb-isopropyl]
pest or weed control at 250 ppm: 0%

Compound: CC(C)NC(=O)N1CC(=O)N(c2cc(Cl)cc(Cl)c2)C1=O [iprodione]
pest or weed control at 250 ppm: 33%

Compound: Cc1cc(C2CC2)nc(Nc2ccccc2)n1 [cyprodinil]
pest or weed control at 250 ppm: 67%

Compound: COCC(=O)N(c1c(C)cccc1C)C(C)C(=O)OC (stereo not shown) [Metalaxyl, metalaxyl]
pest or weed control at 250 ppm: 0%

Compound: Cc1cc(O)no1 [hymexazol]
pest or weed control at 250 ppm: 0%

Compound: Cc1ccc(-c2c(Cl)nc(C#N)n2S(=O)(=O)N(C)C)cc1 [cyazofamid]
pest or weed control at 250 ppm: 0%

Reference for the values: patent US20110281807A1
